Value source: patent US20230303599A1

compounds and their reported solubility kinetic at 24 h
experiment_notes: Kinetic solubility analysis
Format: physicochemical
conditions_used: 1× PBS, 24.2 °C, aqueous buffer, kinetic from dmso stock; pH 7.4 PBS, 1% DMSO, 24-hour incubation at ambient temperature

# compound, value_qualifier, solubility kinetic at 24 h [µg/mL]
measured = [
    ("C[C@H](Cn1cnc2c(N)ncnc21)OCP(=O)(NC(C)(C)C(=O)OCC1CCC(C)(C)CC1)NC(C)(C)C(=O)OCC1CCC(C)(C)CC1 [Example 13]", "<", 1),
    ("CCCCCCCCCCCC(=O)Nc1ncnc2c1ncn2C[C@@H](C)OCP(=O)(NC(C)(C)C(=O)OCCCCCC)NC(C)(C)C(=O)OCCCCCC [Example 30]", "<", 1),
    ("CCCCCCOC(=O)C(C)(C)NP(=O)(CO[C@H](C)Cn1cnc2/c(=N\\Cc3oc(=O)oc3C)n(Cc3oc(=O)oc3C)cnc21)NC(C)(C)C(=O)OCCCCCC [Example 84]", "=", 8),
    ("CCCCCCOC(=O)C(C)(C)NP(=O)(CO[C@H](C)Cn1cnc2c(N)ncnc21)NC(C)(C)C(=O)OCCCCCC [Example 1]", "=", 33),
    ("CCCCCCOC(=O)C(C)(C)NP(=O)(CO[C@H](C)Cn1cnc2c(N)ncnc21)NC(C)(C)C(=O)OCC(C)(C)OC (stereo partly drawn) [Example 79]", "=", 68),
    ("CCCCCCOC(=O)C(C)(C)NP(=O)(CO[C@H](C)Cn1cnc2c(NC(=O)OC(C)(C)CC(=O)OCc3oc(=O)oc3C)ncnc21)NC(C)(C)C(=O)OCCCCCC [Example 101]", "=", 23),
]

----------
experiment_notes: Kinetic solubility analysis
Type: physicochemical
conditions_used: 1× PBS, 24.2 °C, aqueous buffer, kinetic from dmso stock; pH 7.4 PBS, 1% DMSO, 24-hour incubation at ambient temperature
measured_attribute: solubility kinetic at 24 h (µg/mL)

# smi, recorded_result
measured = [
    ("C[C@H](Cn1cnc2c(N)ncnc21)OCP(=O)(NC(C)(C)C(=O)OCc1ccccc1)NC(C)(C)C(=O)OCc1ccccc1", 50),
    ("CCCCCCOC(=O)C(C)(C)NP(=O)(CO[C@H](C)Cn1cnc2c(NC(=O)[C@H]3CCC(=O)O3)ncnc21)NC(C)(C)C(=O)OCCCCCC", 92),
    ("C[C@H](Cn1cnc2c(N)ncnc21)OCP(=O)(NC(C)(C)C(=O)OCC(C)(C)C)NC(C)(C)C(=O)OCC(C)(C)C", 53),
    ("CCCCCOC(=O)C(C)(C)NP(=O)(CO[C@H](C)Cn1cnc2c(N)ncnc21)NC(C)(C)C(=O)OCCCCC", 53),
    ("C[C@H](Cn1cnc2c(N)ncnc21)OCP(=O)(NC(C)(C)C(=O)O[C@@H](C)C1CCCCC1)NC(C)(C)C(=O)O[C@@H](C)C1CCCCC1", 5),
    ("C[C@H](Cn1cnc2c(N)ncnc21)OCP(=O)(NC(C)(C)C(=O)O[C@H]1CC[C@H](c2ccccc2)CC1)NC(C)(C)C(=O)O[C@H]1CC[C@H](c2ccccc2)CC1", 1),
]

----------
experiment_notes: Cytotoxicity assay in MT-4 cells
Type: cell-based
conditions_used: human, uninfected MT-4 cells, average of at least two independent experiments, read-out: MT4 CC50
Classify: true when CC50 at 5 days is strictly less than 8 µM; false when CC50 at 5 days is not.

# compound, assigned_label
records = [
    ("C[C@H](Cn1cnc2c(N)ncnc21)OCP(=O)(NC(C)(C)C(=O)OCC1CCC2(CCC2)CC1)NC(C)(C)C(=O)OCC1CCC2(CCC2)CC1 (some centres unmarked)", "true"),
    ("C[C@H](Cn1cnc2c(N)ncnc21)OCP(=O)(NC(C)(C)C(=O)O[C@H](C)C1CCCCC1)NC(C)(C)C(=O)O[C@H](C)C1CCCCC1", "false"),
    ("CCCOC(=O)C(C)(C)NP(=O)(CO[C@H](C)Cn1cnc2c(N)ncnc21)NC(C)(C)C(=O)OCCC", "false"),
    ("CCCCCCOC(=O)C(C)(C)NP(=O)(CO[C@H](C)Cn1cnc2c(NC(=O)[C@H]3CCC(=O)O3)ncnc21)NC(C)(C)C(=O)OCCCCCC", "false"),
    ("CCCCCCOC(=O)C(C)(C)NP(=O)(CO[C@H](C)Cn1cnc2c(NC(=O)CCCSC(C)=O)ncnc21)NC(C)(C)C(=O)OCCCCCC", "false"),
    ("CCCCCCOC(=O)C(C)(C)NP(=O)(CO[C@H](C)Cn1cnc2c(N)ncnc21)N[C@]1(C(=O)OCCCCCC)C[C@H]1CC (some centres unmarked)", "true"),
    ("C[C@H](Cn1cnc2c(N)ncnc21)OCP(=O)(NC(C)(C)C(=O)OCC1CCCCC1)NC(C)(C)C(=O)OCC1CCCCC1", "true"),
]

----------
experiment_notes: Cytotoxicity assay in primary human hepatocytes (PHHs)
Format: cell-based
conditions_used: HBV-infected primary human hepatocytes, HBV-infected PHH, Cell Titer Glo, average of at least two independent experiments
molecules and their reported CC50 at 5 days
measured_attribute: CC50 at 5 days

# molecule, recorded_result
measured = [
    ("C[C@H](Cn1cnc2c(N)ncnc21)OCP(=O)(NC(C)(C)C(=O)OCC1CC2(CCC2)C1)NC(C)(C)C(=O)OCC1CC2(CCC2)C1 (stereo partly drawn) [Example 50]", "> 100 nM"),
    ("C[C@H](Cn1cnc2c(N)ncnc21)OCP(=O)(NC(C)(C)C(=O)OCC12CCC(CC1)CC2)NC(C)(C)C(=O)OCC12CCC(CC1)CC2 [Example 48]", "> 100 nM"),
    ("C[C@H](Cn1cnc2c(N)ncnc21)OCP(=O)(NC(C)(C)C(=O)O[C@@H]1C[C@@H]2C[C@@H]2C1)NC(C)(C)C(=O)O[C@@H]1C[C@@H]2C[C@@H]2C1 [Example 60]", "> 100 nM"),
    ("CCCCCCOC(=O)C(C)(C)NP(=O)(CO[C@H](C)Cn1cnc2c(NC(=O)OCCOC(=O)c3ccccc3)ncnc21)NC(C)(C)C(=O)OCCCCCC [Example 94]", "> 100 nM"),
    ("C[C@H](Cn1cnc2c(N)ncnc21)OCP(=O)(NC(C)(C)C(=O)OCC1CC2(C1)CC(F)(F)C2)NC(C)(C)C(=O)OCC1CC2(C1)CC(F)(F)C2 [Example 58]", "> 100 nM"),
    ("C[C@H](Cn1cnc2c(N)ncnc21)OCP(=O)(NC(C)(C)C(=O)OCC1CCCCC1)NC(C)(C)C(=O)OCC1CCCCC1 [Example 46]", "> 100 nM"),
    ("CCC(C)(C)CCOC(=O)C(C)(C)NP(=O)(CO[C@H](C)Cn1cnc2c(N)ncnc21)NC(C)(C)C(=O)OCCC(C)(C)CC [Example 54]", "> 100 nM"),
    ("C[C@H](Cn1cnc2c(N)ncnc21)OCP(=O)(NC(C)(C)C(=O)OCC12CC3CC(CC(C3)C1)C2)NC(C)(C)C(=O)OCC12CC3CC(CC(C3)C1)C2 [Example 59]", "> 100 nM"),
    ("CCC(CC)COC(=O)C(C)(C)NP(=O)(CO[C@H](C)Cn1cnc2c(N)ncnc21)NC(C)(C)C(=O)OCC(CC)CC [Example 2]", "> 1000 nM"),
    ("C[C@H](Cn1cnc2c(N)ncnc21)OCP(=O)(NC(C)(C)C(=O)O[C@H]1C[C@@H](C(C)(C)C)C1)NC(C)(C)C(=O)O[C@H]1C[C@@H](C(C)(C)C)C1 [Example 51]", "> 100 nM"),
    ("C[C@H](Cn1cnc2c(N)ncnc21)OCP(=O)(NC(C)(C)C(=O)O[C@H]1C[C@H](C(C)(C)C)C1)NC(C)(C)C(=O)O[C@H]1C[C@H](C(C)(C)C)C1 [Example 52]", "> 100 nM"),
    ("CCCCCCOC(=O)C(C)(C)NP(=O)(CO[C@H](C)Cn1cnc2c(N)ncnc21)NC(C)(C)C(=O)OCC12CC(C1)C2 (stereo partly drawn) [Example 77]", "> 100 nM"),
]

----------
experiment_notes: Cytotoxicity assay in MT-4 cells
Format: cell-based
conditions_used: human, uninfected MT-4 cells, average of at least two independent experiments, read-out: MT4 CC50
compounds and their reported CC50 at 5 days

# compound, unit_string, CC50 at 5 days
records = [
    ("C[C@H](Cn1cnc2c(N)ncnc21)OCP(=O)(NC(C)(C)C(=O)O[C@H]1CC[C@H](c2ccccc2)CC1)NC(C)(C)C(=O)O[C@H]1CC[C@H](c2ccccc2)CC1", "µM", 5.47),
    ("CC(C)COC(=O)C(C)(C)NP(=O)(CO[C@H](C)Cn1cnc2c(N)ncnc21)NC(C)(C)C(=O)OCC(C)C", "µM", 4.35),
    ("C[C@H](Cn1cnc2c(N)ncnc21)OCP(=O)(NC(C)(C)C(=O)OCC1CC2(C1)CC1(CCC1)C2)NC(C)(C)C(=O)OCC1CC2(C1)CC1(CCC1)C2", "µM", 6.62),
    ("CCCCCCOC(=O)C(C)(C)NP(=O)(CO[C@H](C)Cn1cnc2c(=N)n(Cc3oc(=O)oc3C)cnc21)NC(C)(C)C(=O)OCCCCCC", "µM", 6.6),
    ("C[C@H](Cn1cnc2c(N)ncnc21)OCP(=O)(NC(C)(C)C(=O)O[C@H]1C[C@H](C(C)(C)C)C1)NC(C)(C)C(=O)O[C@H]1C[C@H](C(C)(C)C)C1", "µM", 7.19),
    ("C[C@H](Cn1cnc2c(N)ncnc21)OCP(=O)(NC(C)(C)C(=O)OC1CC2(CCCCC2)C1)NC(C)(C)C(=O)OC1CC2(CCCCC2)C1 (some centres unmarked)", "µM", 3.73),
    ("CCCCCCOC(=O)C(C)(C)NP(=O)(CO[C@H](C)Cn1cnc2c(NC(=O)OC(C)(C)CC(=O)OCc3oc(=O)oc3C)ncnc21)NC(C)(C)C(=O)OCCCCCC", "µM", 7.68),
    ("C[C@H](Cn1cnc2c(N)ncnc21)OCP(=O)(NC(C)(C)C(=O)O[C@H]1C[C@@H](C(C)(C)C)C1)NC(C)(C)C(=O)O[C@H]1C[C@@H](C(C)(C)C)C1", "µM", 7.25),
    ("C[C@H](Cn1cnc2c(N)ncnc21)OCP(=O)(NC(C)(C)C(=O)OCC12CCC(CC1)CC2)NC(C)(C)C(=O)OCC12CCC(CC1)CC2", "µM", 3.34),
    ("C[C@H](Cn1cnc2c(N)ncnc21)OCP(=O)(NC(C)(C)C(=O)OC1CCCC1)NC(C)(C)C(=O)OC1CCCC1", "µM", 3.67),
    ("CCCCCCCCOC(=O)C(C)(C)NP(=O)(CO[C@H](C)Cn1cnc2c(N)ncnc21)NC(C)(C)C(=O)OCCCCCCCC", "µM", 7.27),
    ("C[C@H](Cn1cnc2c(N)ncnc21)OCP(=O)(NC(C)(C)C(=O)OCC1CCC(C)(C)CC1)NC(C)(C)C(=O)OCC1CCC(C)(C)CC1", "µM", 5.47),
    ("C[C@H](Cn1cnc2c(N)ncnc21)OCP(=O)(NC(C)(C)C(=O)O[C@@H](C)C1CCCCC1)NC(C)(C)C(=O)O[C@@H](C)C1CCCCC1", "µM", 9.65),
    ("CCCCCCOC(=O)[C@@]1(NP(=O)(CO[C@H](C)Cn2cnc3c(N)ncnc32)N[C@]2(C(=O)OCCCCCC)C[C@H]2CC)C[C@H]1CC", "µM", 8.85),
    ("CCC1(CC)CC(OC(=O)C(C)(C)NP(=O)(CO[C@H](C)Cn2cnc3c(N)ncnc32)NC(C)(C)C(=O)OC2CC(CC)(CC)C2)C1", "µM", 5.21),
    ("C[C@H](Cn1cnc2c(N)ncnc21)OCP(=O)(NC(C)(C)C(=O)OCC1CC2(C1)CC(F)(F)C2)NC(C)(C)C(=O)OCC1CC2(C1)CC(F)(F)C2", "µM", 3.68),
    ("CCCCCCOC(=O)C(C)(C)NP(=O)(CO[C@H](C)Cn1cnc2c(NC(=O)OCC(=O)OCc3oc(=O)oc3C)ncnc21)NC(C)(C)C(=O)OCCCCCC", "µM", 14.8),
    ("CCCCCCOC(=O)C1(NP(=O)(CO[C@H](C)Cn2cnc3c(N)ncnc32)NC2(C(=O)OCCCCCC)CCC2)CCC1", "µM", 17.3),
    ("C[C@H](Cn1cnc2c(N)ncnc21)OCP(=O)(N[C@@](C)(Cc1ccccc1)C(=O)OCC1CCCCC1)N[C@@](C)(Cc1ccccc1)C(=O)OCC1CCCCC1", "µM", 4.36),
    ("CCCCCOC(=O)C(C)(C)NP(=O)(CO[C@H](C)Cn1cnc2c(N)ncnc21)NC(C)(C)C(=O)OCCCCC", "µM", 8.42),
    ("C[C@H](Cn1cnc2c(N)ncnc21)OCP(=O)(NC(C)(C)C(=O)OC[C@H]1CC[C@H](C)CC1)NC(C)(C)C(=O)OC[C@H]1CC[C@H](C)CC1", "µM", 4.92),
    ("C[C@H](Cn1cnc2c(N)ncnc21)OCP(=O)(NC(C)(C)C(=O)OCCC1CCCCC1)NC(C)(C)C(=O)OCCC1CCCCC1", "µM", 3.19),
    ("C[C@H](Cn1cnc2c(N)ncnc21)OCP(=O)(NC(C)(C)C(=O)OCC12CCC(CC1)C2)NC(C)(C)C(=O)OCC12CCC(CC1)C2", "µM", 5.05),
]
